System: HeLa Kyoto
Experiment: solubility in G1/S (NP-40 vs SDS abundance) (log2 ratio); higher = more soluble
Conditions: cell cycle stage: G1/S
For each of the sequences below, state its solubility in G1/S (log2).

The sequence listed as MKLPARVFFTLGSRLPCGLAPRRFFSYGTKILYQNTEALQSKFFSPLQKAMLPPNSFQGKVAFITGGGTGLGKGMTTLLSSLGAQCVIASRKMDVLKATAEQISSQTGNKVHAIQCDVRDPDMVQNTVSELIKVAGHPNIVINNAAGNFISPTERLSPNAWKTITDIVLNGTAFVTLEIGKQLIKAQKGAAFLSITTIYAETGSGFVVPSASAKAGVEAMSKSLAAEWGKYGMRFNVIQPGPIKTKGAFSRLDPTGTFEKEMIGRIPCGRLGTVEELANLAAFLCSDYASWINGAVIKFDGGEEVLISGEFNDLRKVTKEQWDTIEELIRKTKGS [DECR1] has a reported solubility in G1/S (log2) of 0.0868

The sequence listed as MGEIKVSPDYNWFRGTVPLKKIIVDDDDSKIWSLYDAGPRSIRCPLIFLPPVSGTADVFFRQILALTGWGYRVIALQYPVYWDHLEFCDGFRKLLDHLQLDKVHLFGASLGGFLAQKFAEYTHKSPRVHSLILCNSFSDTSIFNQTWTANSFWLMPAFMLKKIVLGNFSSGPVDPMMADAIDFMVDRLESLGQSELASRLTLNCQNSYVEPHKIRDIPVTIMDVFDQSALSTEAKEEMYKLYPNARRAHLKTGGNFPYLCRSAEVNLYVQIHLLQFHGTKYAAIDPSMVSAEELEVQKGSLGISQEEQ [SPG21] has a reported solubility in G1/S (log2) of 0.00691

---

Tested on: HeLa Kyoto
Assay: solubility change mitosis vs G1/S (difference of NP-40 vs SDS log2 ratios) (log2 ratio difference); higher = more soluble in mitosis
Record form. Attribute: solubility change mitosis (log2). Fill in for each entry.
Give the value as a plain number.

Documented solubility change mitosis (log2) of MTTLTHRARRTEISKNSEKKMESEEDSNWEKSPDNEDSGDSKDIRLTLMEEVLLLGLKDKEGYTSFWNDCISSGLRGGILIELAMRGRIYLEPPTMRKKRLLDRKVLLKSDSPTGDVLLDETLKHIKATEPTETVQTWIELLTGETWNPFKLQYQLRNVRERIAKNLVEKGILTTEKQNFLLFDMTTHPVTNTTEKQRLVKKLQDSVLERWVNDPQRMDKRTLALLVLAHSSDVLENVFSSLTDDKYDVAMNRAKDLVELDPEVEGTKPSATEMIWAVLAAFNKS [GOLPH3L] : 0.0306

Form field solubility change mitosis (log2), entry MAALRVLLSCVRGPLRPPVRCPAWRPFASGANFEYIIAEKRGKNNTVGLIQLNRPKALNALCDGLIDELNQALKTFEEDPAVGAIVLTGGDKAFAAGADIKEMQNLSFQDCYSSKFLKHWDHLTQVKKPVIAAVNGYAFGGGCELAMMCDIIYAGEKAQFAQPEILIGTIPGAGGTQRLTRAVGKSLAMEMVLTGDRISAQDAKQAGLVSKICPVETLVEEAIQCAEKIASNSKIVVAMAKESVNAAFEMTLTEGSKLEKKLFYSTFATDDRKEGMTAFVEKRKANFKDQ [ECHS1] : 0.0593

Value of measured solubility change mitosis (log2) for the entry MASSLLAGERLVRALGPGGELEPERLPRKLRAELEAALGKKHKGGDSSSGPQRLVSFRLIRDLHQHLRERDSKLYLHELLEGSEIYLPEVVKPPRNPELVARLEKIKIQLANEEYKRITRNVTCQDTRHGGTLSDLGKQVRSLKALVITIFNFIVTVVAAFVCTYLGSQYIFTEMASRVLAALIVASVVGLAELYVMVRAMEGELGEL [TMEM199] : -0.0986

Per the record, MMAAGAALALALWLLMPPVEVGGAGPPPIQDGEFTFLLPAGRKQCFYQSAPANASLETEYQVIGGAGLDVDFTLESPQGVLLVSESRKADGVHTVEPTEAGDYKLCFDNSFSTISEKLVFFELIFDSLQDDEEVEGWAEAVEPEEMLDVKMEDIKESIETMRTRLERSIQMLTLLRAFEARDRNLQEGNLERVNFWSAVNVAVLLLVAVLQVCTLKRFFQDKRPVPT [TMED1] has solubility change mitosis (log2) of -0.147

---

Tested on: HeLa Kyoto
Assay: solubility change mitosis vs G1/S (difference of NP-40 vs SDS log2 ratios) (log2 ratio difference); higher = more soluble in mitosis
Measured Property: solubility change mitosis (log2)
Answer as a number with no unit attached.

Record ALYREF . Reported solubility change mitosis (log2): 0.776

For MLPAALLRRPGLGRLVRHARAYAEAAAAPAAASGPNQMSFTFASPTQVFFNGANVRQVDVPTLTGAFGILAAHVPTLQVLRPGLVVVHAEDGTTSKYFVSSGSIAVNADSSVQLLAEEAVTLDMLDLGAAKANLEKAQAELVGTADEATRAEIQIRIEANEALVKALE [ATP5D] the substance record lists solubility change mitosis (log2) as -0.0082

Reported solubility change mitosis (log2) of MAQVLRGTVTDFPGFDERADAETLRKAMKGLGTDEESILTLLTSRSNAQRQEISAAFKTLFGRDLLDDLKSELTGKFEKLIVALMKPSRLYDAYELKHALKGAGTNEKVLTEIIASRTPEELRAIKQVYEEEYGSSLEDDVVGDTSGYYQRMLVVLLQANRDPDAGIDEAQVEQDAQALFQAGELKWGTDEEKFITIFGTRSVSHLRKVFDKYMTISGFQIEETIDRETSGNLEQLLLAVVKSIRSIPAYLAETLYYAMKGAGTDDHTLIRVMVSRSEIDLFNIRKEFRKNFATSLYSMIKGDTSGDYKKALLLLCGEDD [ANXA5] : 0.0486

What the record says about MTEKAPEPHVEEDDDDELDSKLNYKPPPQKSLKELQEMDKDDESLIKYKKTLLGDGPVVTDPKAPNVVVTRLTLVCESAPGPITMDLTGDLEALKKETIVLKEGSEYRVKIHFKVNRDIVSGLKYVQHTYRTGVKVDKATFMVGSYGPRPEEYEFLTPVEEAPKGMLARGTYHNKSFFTDDDKQDHLSWEWNLSIKKEWTE [ARHGDIB] : solubility change mitosis (log2) is -0.0572

Record summary for MAITLEEAPWLGWLLVKALMRFAFMVVNNLVAIPSYICYVIILQPLRVLDSKRFWYIEGIMYKWLLGMVASWGWYAGYTVMEWGEDIKAVSKDEAVMLVNHQATGDVCTLMMCLQDKGLVVAQMMWLMDHIFKYTNFGIVSLVHGDFFIRQGRSYRDQQLLLLKKHLENNYRSRDRKWIVLFPEGGFLRKRRETSQAFAKKNNLPFLTNVTLPRSGATKIILNALVAQQKNGSPAGGDAKELDSKSKGLQWIIDTTIAYPKAEPIDIQTWILGYRKPTVTHVHYRIFPIKDVPLETDDLTTWLYQRFVEKEDLLSHFYETGAFPPSKGHKEAVSREMTLSNLWIFLIQSFAFLSGYMWYNIIQYFYHCLF [LPGAT1] : reported solubility change mitosis (log2) = -0.152

substance MAGAENWPGQQLELDEDEASCCRWGAQHAGARELAALYSPGKRLQEWCSVILCFSLIAHNLVHLLLLARWEDTPLVILGVVAGALIADFLSGLVHWGADTWGSVELPIVGKAFIRPFREHHIDPTAITRHDFIETNGDNCLVTLLPLLNMAYKFRTHSPEALEQLYPWECFVFCLIIFGTFTNQIHKWSHTYFGLPRWVTLLQDWHVILPRKHHRIHHVSPHETYFCITTGWLNYPLEKIGFWRRLEDLIQGLTGEKPRADDMKWAQKIK [TMEM189] , solubility change mitosis (log2) observed: 0.0319

---

System: HeLa Kyoto
Test: solubility change mitosis vs G1/S (difference of NP-40 vs SDS log2 ratios) (log2 ratio difference); higher = more soluble in mitosis
# cutoff -0.04 applies to solubility change mitosis (log2); >= gives y, < gives n

## Input Threshold query (solubility change mitosis (log2) >= -0.04) on ARFGEF1
## Output n

## Input Please tell me: is the substance MVEKEEAGGGISEEEAAQYDRQIRLWGLEAQKRLRASRVLLVGLKGLGAEIAKNLILAGVKGLTMLDHEQVTPEDPGAQFLIRTGSVGRNRAEASLERAQNLNPMVDVKVDTEDIEKKPESFFTQFDAVCLTCCSRDVIVKVDQICHKNSIKFFTGDVFGYHGYTFANLGEHEFVEEKTKVAKVSQGVEDGPDTKRAKLDSSETTMVKKKVVFCPVKEALEVDWSSEKAKAALKRTTSDYFLLQVLLKFRTDKGRDPSSDTYEEDSELLLQIRNDVLDSLGISPDLLPEDFVRYCFSEMAPVCAVVGGILAQEIVKALSQRDPPHNNFFFFDGMKGNGIVECLGPK [SAE1] at or over -0.04 in terms of solubility change mitosis (log2)?
## Output n

## Input Does the reported solubility change mitosis (log2) for MHRGVGPAFRVVRKMAASGAEPQVLVQYLVLRKDLSQAPFSWPAGALVAQACHAATAALHTHRDHPHTAAYLQELGRMRKVVLEAPDETTLKELAETLQQKNIDHMLWLEQPENIATCIALRPYPKEEVGQYLKKFRLFK [PTRHD1] fall at or above the -0.04 mark?
## Output y

## Input Hello, I need to know if MNQEKLAKLQAQVRIGGKGTARRKKKVVHRTATADDKKLQSSLKKLAVNNIAGIEEVNMIKDDGTVIHFNNPKVQASLSANTFAITGHAEAKPITEMLPGILSQLGADSLTSLRKLAEQFPRQVLDSKAPKPEDIDEEDDDVPDLVENFDEASKNEAN [BTF3L4] has measured solubility change mitosis (log2) not below -0.04. Thanks!
## Output y

## Input Answer whether solubility change mitosis (log2) of MICTFLRAVQYTEKLHRSSAKRLLLPYIVLNKACLKTEPSLRCGLQYQKKTLRPRCILGVTQKTIWTQGPSPRKAKEDGSKQVSVHRSQRGGTAVPTSQKVKEAGRDFTYLIVVLFGISITGGLFYTIFKELFSSSSPSKIYGRALEKCRSHPEVIGVFGESVKGYGEVTRRGRRQHVRFTEYVKDGLKHTCVKFYIEGSEPGKQGTVYAQVKENPGSGEYDFRYIFVEIESYPRRTIIIEDNRSQDD [TIMM21] is greater than or equal to -0.04.
## Output y

## Input Record MHSEAEESKEVATDVFNSKNLAVQAQKKILGKMVSKSIATTLIDDTSSEVLDELYRVTREYTQNKKEAEKIIKNLIKTVIKLAILYRNNQFNQDELALMEKFKKKVHQLAMTVVSFHQVDYTFDRNVLSRLLNECREMLHQIIQRHLTAKSHGRVNNVFDHFSDCEFLAALYNPFGNFKPHLQKLCDGINKMLDEENI [TNFAIP8] ; criterion: solubility change mitosis (log2) no lower than -0.04. Met?
## Output n

## Input Is reported solubility change mitosis (log2) greater than or equal to -0.04 here: MAEPTVCSFLTKVLCAHGGRMFLKDLRGHVELSEARLRDVLQRAGPERFLLQEVETQEGLGDAEAEAAAGAVGGGGTSAWRVVAVSSVRLCARYQRGECQACDQLHFCRRHMLGKCPNRDCWSTCTLSHDIHTPVNMQVLKSHGLFGLNENQLRILLLQNDPCLLPEVCLLYNKGEALYGYCNLKDKCNKFHVCKSFVKGECKLQTCKRSHQLIHAASLKLLQDQGLNIPSVVNFQIISTYKHMKLHKMLENTDNSSPSTEHSQGLEKQGVHAAGAAEAGPLASVPAQSAKKPCPVSCEK [ZC3HAV1L]
## Output n

## Input # bool: solubility change mitosis (log2) of MAVESRVTQEEIKKEPEKPIDREKTCPLLLRVFTTNNGRHHRMDEFSRGNVPSSELQIYTWMDATLKELTSLVKEVYPEARKKGTHFNFAIVFTDVKRPGYRVKEIGSTMSGRKGTDDSMTLQSQKFQIGDYLDIAITPPNRAPPPSGRMRPY [SAP18] >= -0.04
## Output y

## Input Dear colleague, could you confirm whether MASKGPSASASPENSSAGGPSGSSNGAGESGGQDSTFECNICLDTAKDAVISLCGHLFCWPCLHQWLETRPNRQVCPVCKAGISRDKVIPLYGRGSTGQQDPREKTPPRPQGQRPEPENRGGFQGFGFGDGGFQMSFGIGAFPFGIFATAFNINDGRPPPAVPGTPQYVDEQFLSRLFLFVALVIMFWLLIA [RNF185] has solubility change mitosis (log2) at or above -0.04?
## Output n

## Input I'd appreciate it if you could say whether MEKIEEQFANLHIVKCSLGTKEPTYLLGIDTSKTVQAGKENLVAVLCSNGSIRIYDKERLNVLREFSGYPGLLNGVRFANSCDSVYSACTDGTVKCWDARVAREKPVQLFKGYPSNIFISFDINCNDHIICAGTEKVDDDALLVFWDARMNSQNLSTTKDSLGAYSETHSDDVTQVRFHPSNPNMVVSGSSDGLVNVFDINIDNEEDALVTTCNSISSVSCIGWSGKGYKQIYCMTHDEGFYWWDLNHLDTDEPVTRLNIQDVREVVNMKEDALDYLIGGLYHEKTDTLHVIGGTNKGRIHLMNCSMSGLTHVTSLQGGHAATVRSFCWNVQDDSLLTGGEDAQLLLWKPGAIEKTFTKKESMKIASSVHQRVRVHSNDSYKRRKKQ [WDR89] has solubility change mitosis (log2) at least equal to -0.04.
## Output y

## Input Threshold query (solubility change mitosis (log2) >= -0.04) on MGAQLSTLGHMVLFPVWFLYSLLMKLFQRSTPAITLESPDIKYPLRLIDREIISHDTRRFRFALPSPQHILGLPVGQHIYLSARIDGNLVVRPYTPISSDDDKGFVDLVIKVYFKDTHPKFPAGGKMSQYLESMQIGDTIEFRGPSGLLVYQGKGKFAIRPDKKSNPIIRTVKSVGMIAGGTGITPMLQVIRAIMKDPDDHTVCHLLFANQTEKDILLRPELEELRNKHSARFKLWYTLDRAPEAWDYGQGFVNEEMIRDHLPPPEEEPLVLMCGPPPMIQYACLPNLDHVGHPTERCFVF [CYB5R3]
## Output n
